Reported koff values are given for each entry in this list.
Measured on: T1, human PRLR (Biacore antigen) (human, UniProt P16471 25-234, limits assumed)
T1 construct: The construct injected over captured antibody is not described (a soluble form is likely); also called huPRLR
T1 sequence: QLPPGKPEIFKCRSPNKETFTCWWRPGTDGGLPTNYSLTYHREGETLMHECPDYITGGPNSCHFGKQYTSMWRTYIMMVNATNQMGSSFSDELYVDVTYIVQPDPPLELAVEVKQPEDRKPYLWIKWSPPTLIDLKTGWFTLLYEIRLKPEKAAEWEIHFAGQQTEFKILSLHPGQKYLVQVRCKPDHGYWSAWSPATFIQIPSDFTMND
Assay procedure: SPR Biacore
Report the figure along with its unit, number first.

1) Ab12 (antibody, V domains shown, murine monoclonal, isotype G2a; reported as PRLR agonist; also called murine Ab12) VH: DVQLQESGPGLVKPSQSLSLTCTVTGYSITSDYAWNWIRQFPGNKLEWMGYIGYSGRTSFNPSLKSRISITRDTSKNQFFLQLNSVTTEDTATYYCARGGFAMDYWGQGTSVTVSS VL: QIVLTQSPGIMSASPGEKVTMTCSASSSVTYMYWYQQKPRSSPKPWIYLTSNLASGVPARFSGSGSGTSYSLTISSMEAEDGATYYCQQWSSTPPLTFGGGTKLELN; 0.00186 s⁻¹

Field: next binder
**Q:** Look up koff for this binder: LFA102 (antibody, human IgG1, kappa, V domains shown, humanized IgG1 kappa comparator (WO 2008022295)) VH: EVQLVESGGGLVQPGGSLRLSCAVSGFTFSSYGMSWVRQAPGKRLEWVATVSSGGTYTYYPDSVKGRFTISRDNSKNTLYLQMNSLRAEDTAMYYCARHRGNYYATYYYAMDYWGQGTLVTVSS VL: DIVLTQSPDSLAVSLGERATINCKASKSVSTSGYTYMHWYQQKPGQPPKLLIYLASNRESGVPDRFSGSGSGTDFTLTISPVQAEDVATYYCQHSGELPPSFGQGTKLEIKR
**A:** 0.00073 s⁻¹
